target: integrin αVβ3 (Homo sapiens, UniProt P05106+P06756); construct: purchased R&D Systems Inc. (Minneapolis, MN, USA); experiment: biochemical; type: binding
Sequence (P06756 31-992): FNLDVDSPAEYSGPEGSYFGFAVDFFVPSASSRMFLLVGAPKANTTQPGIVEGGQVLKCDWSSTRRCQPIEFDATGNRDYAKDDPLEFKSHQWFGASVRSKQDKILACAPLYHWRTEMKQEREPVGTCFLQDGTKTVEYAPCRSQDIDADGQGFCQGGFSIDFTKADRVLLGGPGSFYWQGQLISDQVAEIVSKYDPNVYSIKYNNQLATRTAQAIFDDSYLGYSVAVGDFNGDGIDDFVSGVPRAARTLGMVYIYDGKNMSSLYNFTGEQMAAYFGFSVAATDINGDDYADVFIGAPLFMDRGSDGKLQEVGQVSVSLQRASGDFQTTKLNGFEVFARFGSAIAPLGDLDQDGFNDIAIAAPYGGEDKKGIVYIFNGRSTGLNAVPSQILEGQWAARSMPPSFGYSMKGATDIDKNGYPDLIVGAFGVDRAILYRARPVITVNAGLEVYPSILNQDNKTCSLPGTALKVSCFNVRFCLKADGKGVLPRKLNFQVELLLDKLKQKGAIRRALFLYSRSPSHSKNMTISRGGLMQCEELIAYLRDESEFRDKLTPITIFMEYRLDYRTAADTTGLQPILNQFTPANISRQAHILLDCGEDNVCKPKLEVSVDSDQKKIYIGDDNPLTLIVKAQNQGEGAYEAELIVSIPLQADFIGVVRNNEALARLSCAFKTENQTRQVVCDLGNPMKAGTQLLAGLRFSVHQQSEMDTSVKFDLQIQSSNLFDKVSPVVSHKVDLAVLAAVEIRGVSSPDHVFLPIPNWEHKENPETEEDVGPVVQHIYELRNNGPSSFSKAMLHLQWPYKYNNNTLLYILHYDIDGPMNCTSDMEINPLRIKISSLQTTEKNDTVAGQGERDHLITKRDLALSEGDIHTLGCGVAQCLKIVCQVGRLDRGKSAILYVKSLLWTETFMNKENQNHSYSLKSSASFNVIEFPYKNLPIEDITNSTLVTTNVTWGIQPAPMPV
Sequence (P05106 27-718): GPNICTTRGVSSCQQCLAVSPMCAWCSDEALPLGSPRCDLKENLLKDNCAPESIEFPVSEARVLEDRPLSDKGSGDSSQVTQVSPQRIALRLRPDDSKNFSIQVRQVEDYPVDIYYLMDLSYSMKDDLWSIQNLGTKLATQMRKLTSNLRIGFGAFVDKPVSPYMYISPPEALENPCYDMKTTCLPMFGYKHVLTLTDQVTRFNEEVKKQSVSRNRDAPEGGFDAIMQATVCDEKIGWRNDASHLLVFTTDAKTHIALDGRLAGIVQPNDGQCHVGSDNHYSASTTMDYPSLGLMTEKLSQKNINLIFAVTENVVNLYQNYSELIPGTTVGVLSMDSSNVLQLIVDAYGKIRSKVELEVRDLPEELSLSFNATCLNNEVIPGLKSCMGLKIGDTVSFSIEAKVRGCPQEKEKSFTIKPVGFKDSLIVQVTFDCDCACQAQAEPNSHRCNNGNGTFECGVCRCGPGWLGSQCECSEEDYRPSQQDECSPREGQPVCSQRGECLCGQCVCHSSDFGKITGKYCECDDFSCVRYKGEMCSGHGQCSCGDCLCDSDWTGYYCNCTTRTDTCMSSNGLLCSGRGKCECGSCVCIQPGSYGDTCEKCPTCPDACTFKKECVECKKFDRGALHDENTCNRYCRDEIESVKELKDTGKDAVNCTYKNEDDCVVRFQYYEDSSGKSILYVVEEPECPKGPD
measured.property: IC50

Measured IC50 of NCC(=O)O : > 22 mM

* * *

molecular target: integrin αllbβ3 (Homo sapiens, UniProt P05106+P08514); construct: purchased Enzyme Research Laboratories Ltd. (Swansea, UK); test: biochemical; assay type: binding; conditions: integrin αllbβ3, immobilized fibrinogen; ligand range 0.1-22 mM
measured.property: IC50

Hi, could you look up IC50 for each item in my list?
1. CNCC(=O)O
2. NCP(=O)(O)O
3. O=C(O)CNCC(=O)O
4. CC(=O)N(CC(=O)O)CP(=O)(O)O [N-acetylglyphosate]
5. CC(=O)NCC(=O)O

1: > 22 mM; 2: > 22 mM; 3: > 22 mM; 4: > 22 mM; 5: > 22 mM

Measured IC50 of O=C(O)CNCP(=O)(O)O [Glyphosate, N-(phosphonomethyl)glycine] : > 22 mM

* * *

target: integrin αVβ3 (Homo sapiens, UniProt P05106+P06756); construct: purchased R&D Systems Inc. (Minneapolis, MN, USA); test: biochemical; type: binding; details: integrin αVβ3, immobilized vitronectin; at 22 mM (highest concentration); read-out: Maximal Inhibition Achieved (converted)
Note to self: values exactly at 50% are label 1. So inhibition at or above 50% is label 1, below is label 0.

Below, 5 compounds whose answers are already recorded.
>  <compound>
CC(=O)N(CC(=O)O)CP(=O)(O)O [N-acetylglyphosate]

>  <discrete.label>
label 0

$$$$
>  <compound>
NCP(=O)(O)O [Aminomethylphosphonic acid (AMPA), aminomethylphosphonic acid]

>  <discrete.label>
label 1

$$$$
>  <compound>
O=C(O)CNCP(=O)(O)O [Glyphosate, N-(phosphonomethyl)glycine]

>  <discrete.label>
label 0

$$$$
>  <compound>
CNCC(=O)O [Sarcosine]

>  <discrete.label>
label 0

$$$$
>  <compound>
CC(=O)NCC(=O)O [Acetylglycine]

>  <discrete.label>
label 1

$$$$

Read the next record carefully.
Reported inhibition at or above 50%? O=C(O)CNCC(=O)O [Iminodiacetic acid]
label 1

* * *

molecular target: integrin α5β1 (Homo sapiens, UniProt P05556+P08648); construct: purchased R&D Systems Inc. (Minneapolis, MN, USA); test: biochemical; assay type: binding
Sequence (P08648 42-995 limits assumed): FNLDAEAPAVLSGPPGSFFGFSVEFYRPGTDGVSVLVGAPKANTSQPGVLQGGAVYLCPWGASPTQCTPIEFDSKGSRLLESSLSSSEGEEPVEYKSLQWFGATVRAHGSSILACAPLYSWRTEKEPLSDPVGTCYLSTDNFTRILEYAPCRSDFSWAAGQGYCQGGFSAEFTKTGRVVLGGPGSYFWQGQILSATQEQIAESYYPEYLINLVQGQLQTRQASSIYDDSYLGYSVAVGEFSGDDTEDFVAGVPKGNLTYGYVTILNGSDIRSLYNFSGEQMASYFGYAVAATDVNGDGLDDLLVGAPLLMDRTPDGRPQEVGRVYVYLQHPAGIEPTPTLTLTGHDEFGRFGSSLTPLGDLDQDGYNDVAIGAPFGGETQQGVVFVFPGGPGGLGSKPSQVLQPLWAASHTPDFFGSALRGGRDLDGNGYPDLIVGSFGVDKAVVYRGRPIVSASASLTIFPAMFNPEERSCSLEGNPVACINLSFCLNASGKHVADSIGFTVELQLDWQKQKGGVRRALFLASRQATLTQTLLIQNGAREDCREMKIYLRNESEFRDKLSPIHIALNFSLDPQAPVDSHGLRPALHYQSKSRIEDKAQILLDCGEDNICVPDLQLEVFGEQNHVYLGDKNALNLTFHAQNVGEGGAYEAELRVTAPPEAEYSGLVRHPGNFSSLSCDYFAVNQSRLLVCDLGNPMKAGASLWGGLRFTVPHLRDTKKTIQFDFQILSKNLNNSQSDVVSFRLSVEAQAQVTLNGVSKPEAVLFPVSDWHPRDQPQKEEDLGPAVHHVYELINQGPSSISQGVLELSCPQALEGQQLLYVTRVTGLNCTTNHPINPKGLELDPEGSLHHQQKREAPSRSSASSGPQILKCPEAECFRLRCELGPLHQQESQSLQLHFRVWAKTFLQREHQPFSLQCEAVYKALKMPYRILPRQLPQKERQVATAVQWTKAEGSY
Sequence (P05556 21-728 limits assumed): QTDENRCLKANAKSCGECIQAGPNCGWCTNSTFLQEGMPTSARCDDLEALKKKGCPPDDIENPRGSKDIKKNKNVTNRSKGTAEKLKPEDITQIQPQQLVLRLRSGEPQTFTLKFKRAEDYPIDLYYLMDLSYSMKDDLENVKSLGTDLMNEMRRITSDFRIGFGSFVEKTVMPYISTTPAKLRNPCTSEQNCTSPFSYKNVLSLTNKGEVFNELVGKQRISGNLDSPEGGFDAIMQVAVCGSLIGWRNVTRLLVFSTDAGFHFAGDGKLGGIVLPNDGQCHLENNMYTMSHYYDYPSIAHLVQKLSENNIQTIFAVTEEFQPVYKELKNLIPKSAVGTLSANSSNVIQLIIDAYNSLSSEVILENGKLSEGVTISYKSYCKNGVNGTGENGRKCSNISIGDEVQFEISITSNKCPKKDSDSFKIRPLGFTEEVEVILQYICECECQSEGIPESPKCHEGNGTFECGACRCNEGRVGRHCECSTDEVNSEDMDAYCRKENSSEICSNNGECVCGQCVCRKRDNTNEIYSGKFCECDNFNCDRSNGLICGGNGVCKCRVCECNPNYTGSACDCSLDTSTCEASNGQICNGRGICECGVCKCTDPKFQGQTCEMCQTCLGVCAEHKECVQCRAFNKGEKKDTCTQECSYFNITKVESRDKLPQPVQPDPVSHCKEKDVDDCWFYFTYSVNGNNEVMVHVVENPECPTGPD
measured.property: IC50

Item NCC(=O)O was tested on integrin α5β1 (Homo sapiens, UniProt P05556+P08648); the reported IC50 is > 22 mM

* * *

I'd be grateful if you could share measured IC50 for these entries.
molecular target: integrin αVβ3 (Homo sapiens, UniProt P05106+P06756); construct: purchased R&D Systems Inc. (Minneapolis, MN, USA); assay: biochemical; assay type: binding; details: integrin αVβ3, immobilized RGD polymer; ligand range 0.1-22 mM

// known answers, use as guide
>  <molecule>
CC(=O)NCC(=O)O

>  <study.system>
integrin αVβ3 (Homo sapiens, UniProt P05106+P06756)

>  <result>
> 22 mM

$$$$
>  <molecule>
O=C(O)CNCC(=O)O

>  <study.system>
integrin αVβ3 (Homo sapiens, UniProt P05106+P06756)

>  <result>
> 22 mM

$$$$

Hi, could you look up IC50 for each item in my list?
1. NCP(=O)(O)O
2. CC(=O)N(CC(=O)O)CP(=O)(O)O [N-acetylglyphosate]
3. O=C(O)CNCP(=O)(O)O [Glyphosate, N-(phosphonomethyl)glycine]
4. CNCC(=O)O

1.3 mM
> 22 mM
2.7 mM
> 22 mM
